All values here come from patent US20070117743A1.

Test system: SK-BR-3
Experiment: SRB colorimetric assay of cell growth and viability, SK-BR-3
Type: cell-based, human
Details: 48 hours exposure, SRB
Where a SMILES comes first, the peptide text is derived from it. Bridges are numbered along the chain shown (N, C = ends). [ ]: non-standard residue; d: D form. The star is where a group is joined. d(aIle) = CC[C@H](C)[C@@H](N)C(=O)O; d(aThr) = C[C@@H](O)[C@@H](N)C(=O)O; Hexanoyl(5-Me) = CC(C)CCCC(=O)*; Orn = NCCC[C@H](N)C(=O)O; Aib = CC(C)(N)C(=O)O
measured attribute: LC50 (µM)
Quick reminder: number only, in µM, skip the unit.

## Input Entry CC[C@H](C)[C@@H](NC(=O)[C@H](CCCN)NC(=O)[C@H]1CCCN1C(=O)[C@H](NC(=O)[C@@H](NC(=O)[C@@H](NC(=O)[C@H](NC(=O)CCCC(C)C)C(C)C)[C@@H](C)O)C(C)C)C(C)C)C(=O)N[C@H]1C(=O)N[C@H]([C@@H](C)CC)C(=O)N[C@H](C(C)C)C(=O)N[C@@H](Cc2ccccc2)C(=O)NC(C)(C)C(=O)N[C@@H](C(C)C)C(=O)O[C@@H]1C [Compound 66, [Aib^2]-KF] ({Hexanoyl(5-Me)}-[dV]TV[dV][dP][Orn][d(aIle)][d(aThr)][d(aIle)][dV]F[Aib]V; ester 8-C) : reported LC50 = ?
## Output 4.77

###

Test system: LoVo
Test: SRB colorimetric assay of cell growth and viability, LoVo
Assay type: cell-based, human
Conditions: 48 hours exposure; read-out: LC50 LOVO
Where a SMILES comes first, the peptide text is derived from it. Bridges are numbered along the chain shown (N, C = ends). [ ]: non-standard residue; d: D form. The star is where a group is joined. d(aIle) = CC[C@H](C)[C@@H](N)C(=O)O; d(aThr) = C[C@@H](O)[C@@H](N)C(=O)O; Hexanoyl(5-Me) = CC(C)CCCC(=O)*; Orn = NCCC[C@H](N)C(=O)O; Dhb = C/C=C(\N)C(=O)O
In plain terms, low CC50, meaning strictly below 3 µM, gives Fulfilled, and everything else gives Not fulfilled.

Example entries begin here.
molecule | target of assay | cat
C/C=C1\NC(=O)[C@H](Cc2ccccc2)NC(=O)[C@@H](C(C)C)NC(=O)[C@@H]([C@@H](C)CC)NC(=O)[C@H](NC(=O)[C@H](NC(=O)[C@H](CCCN)NC(=O)[C@H]2CCCN2C(=O)[C@H](NC(=O)[C@@H](NC(=O)[C@@H](NC(=O)[C@@H](CCC(=O)O)NC(=O)CCCC(C)C)[C@@H](C)O)C(C)C)C(C)C)[C@@H](C)CC)[C@@H](C)OC(=O)[C@H](C(C)C)NC1=O [Compound 39, [D-Glu^13]-KF] | LoVo | Not fulfilled
C/C=C1\NC(=O)[C@H](Cc2ccccc2)NC(=O)[C@@H](C(C)C)NC(=O)[C@@H]([C@@H](C)CC)NC(=O)[C@H](NC(=O)[C@H](NC(=O)[C@H](CCC(=O)O)NC(=O)[C@H]2CCCN2C(=O)[C@H](NC(=O)[C@@H](NC(=O)[C@@H](NC(=O)[C@H](NC(=O)CCCC(C)C)C(C)C)[C@@H](C)O)C(C)C)C(C)C)[C@@H](C)CC)[C@@H](C)OC(=O)[C@H](C(C)C)NC1=O [Compound 4, [Glu^8]-KF] ({Hexanoyl(5-Me)}-[dV]TV[dV][dP]E[d(aIle)][d(aThr)][d(aIle)][dV]F[Dhb]V; ester 8-C) | LoVo | Fulfilled
C/C=C1\NC(=O)[C@H](Cc2ccccc2)NC(=O)[C@@H](C(C)C)NC(=O)[C@@H]([C@@H](C)CC)NC(=O)[C@H](NC(=O)[C@H](NC(=O)[C@H](CCCN)NC(=O)[C@H]2CCCN2C(=O)[C@H](NC(=O)[C@@H](NC(=O)[C@@H](NC(=O)[C@H](NC(=O)CCCCC(C)(F)F)C(C)C)[C@@H](C)O)C(C)C)C(C)C)[C@@H](C)CC)[C@@H](C)OC(=O)[C@H](C(C)C)NC1=O [Compound 28, [6,6-dFHep^14]-KF] | LoVo | Fulfilled
C/C=C1\NC(=O)[C@H](Cc2ccccc2)NC(=O)[C@@H](C(C)C)NC(=O)[C@@H]([C@@H](C)CC)NC(=O)[C@H](NC(=O)[C@H](NC(=O)[C@H](CCCN)NC(=O)[C@H]2CCCN2C(=O)[C@H](NC(=O)[C@@H](NC(=O)[C@@H](NC(=O)[C@H](NC(=O)CCCC(C)C)C(C)C)[C@@H](C)O)[C@@H](C)O)C(C)C)[C@@H](C)CC)[C@@H](C)OC(=O)[C@H](C(C)C)NC1=O [Compound 50, [Thr^11]-KF] ({Hexanoyl(5-Me)}-[dV]TT[dV][dP][Orn][d(aIle)][d(aThr)][d(aIle)][dV]F[Dhb]V; ester 8-C) | LoVo | Not fulfilled

// switching to the query molecule
## Input Threshold test, CC50 < 3 µM: C/C=C1\NC(=O)[C@H](Cc2ccccc2)NC(=O)[C@@H](C(C)C)NC(=O)[C@@H]([C@@H](C)CC)NC(=O)[C@H](NC(=O)[C@H](NC(=O)[C@H](CCCN)NC(=O)[C@H]2CCCN2C(=O)[C@H](NC(=O)[C@@H](NC(=O)[C@@H](NC(=O)CNC(=O)CCCC(C)C)[C@@H](C)O)C(C)C)C(C)C)[C@@H](C)CC)[C@@H](C)OC(=O)[C@H](C(C)C)NC1=O [Compound 33, [Gly^13]-KF]
## Output Not fulfilled
